Where do the numbers come from? From paper PMC10905675.

# Tested Target: CDK1/cyclin B1 (Homo sapiens)
# Construct: purchased Millipore 14-450M
# Sequence (P06493 whole entry): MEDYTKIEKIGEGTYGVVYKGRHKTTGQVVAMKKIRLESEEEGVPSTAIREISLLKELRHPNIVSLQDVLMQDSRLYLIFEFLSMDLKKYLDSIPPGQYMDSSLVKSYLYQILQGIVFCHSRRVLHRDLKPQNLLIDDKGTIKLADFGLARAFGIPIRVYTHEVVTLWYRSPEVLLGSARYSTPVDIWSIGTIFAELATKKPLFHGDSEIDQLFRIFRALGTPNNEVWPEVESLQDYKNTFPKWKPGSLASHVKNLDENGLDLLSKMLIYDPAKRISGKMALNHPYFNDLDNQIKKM
# Sequence (P14635 whole entry partner): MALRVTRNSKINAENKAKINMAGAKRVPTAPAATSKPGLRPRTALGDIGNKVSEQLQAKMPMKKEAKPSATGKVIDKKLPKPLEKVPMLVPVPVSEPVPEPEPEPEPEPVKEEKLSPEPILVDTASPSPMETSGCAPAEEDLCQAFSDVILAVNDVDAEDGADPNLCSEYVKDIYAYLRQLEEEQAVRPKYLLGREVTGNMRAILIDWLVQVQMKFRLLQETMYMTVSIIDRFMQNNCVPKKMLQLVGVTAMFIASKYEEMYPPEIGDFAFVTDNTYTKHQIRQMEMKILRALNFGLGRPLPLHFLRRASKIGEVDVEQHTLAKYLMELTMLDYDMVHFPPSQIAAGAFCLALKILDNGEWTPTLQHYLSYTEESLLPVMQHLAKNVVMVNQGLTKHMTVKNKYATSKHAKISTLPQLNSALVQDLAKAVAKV
# Assay Method Text: NanoBRET live cell target engagement
# Assay type: binding
# Condition Details: Supp Fig S1E, NanoBRET; read-out: Intracellular IC50 (nM) CDK1/B1

>  <Compound>
COCc1cc(C(=O)Nc2cc([C@H]3CC[C@@H](OC(=O)NC(C)C)C3)[nH]n2)n(C)n1 [PF-07104091, reference compound]

>  <Unit Symbol>
nM

>  <IC50>
1180

$$$$

###

# Assay Method Text: Microsomal stability assay
# Format: in vitro ADME
# Condition Details: male, beagle, dog, liver microsomes, longer than the duration of the experiment, read-out: calculated half-life (in parenthesis)
Property: half-life at 1 µmol/L (h)

>  <Compound Structure String>
NS(=O)(=O)c1ccc(Nc2ncc3cc4n(c3n2)C2(CCCCC2)C(=O)NN4)cc1

>  <Unit Symbol>
h

>  <Value Measured>
1.34

$$$$
